- testName: xn = mol fraction of the nth substance listed, in the solute-free solvent
- details: 293.15 K; x2 = 0.6101
Lab note: compare solubility (g/100 g solution) against 0.6. Equal or greater, write satisfied. Smaller, write not satisfied.

-- ask Reported solubility (g/100 g solution) at or above 0.6? Nc1ncc(Br)nc1Br + CCO + O
-- reply not satisfied

-- ask Continue with CC(C)C(=O)Nc1ccc([N+](=O)[O-])c(C(F)(F)F)c1 + CCO + O
-- reply satisfied

-- ask Continue with O=c1cc(CBr)c2ccccc2[nH]1 + CCO + O
-- reply not satisfied

-- ask Continue with O=C1C=CC(=O)N1c1ccccc1Br + CCO + O
-- reply satisfied

-- ask Continue with Nc1cc(-c2ccncc2)c[nH]c1=O + CCO + O
-- reply not satisfied

Provenance of the data: the CheMixHub drug solubility set
